The reported measurements were obtained from PubChem BioAssay AID1159580.

# Protocol summary: chemical genetic growth profiling, strain panel (AID 1159580);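 also: tested at 20 µM; growth read once vehicle control cultures reached saturation at 30 °C; 1 = growth at the plate median or of vehicle wells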
# Condition info: S. cerevisiae deletion strains, growth OD, locus YPR025C, strain CCL1, stronger effect = lower value
Out of some 5,500 compounds screened, about 2,000 (36%) were called active. Roughly 18% stayed inconclusive and do not appear here. Some of the results follow.

Compound | normalized growth
O=C(CSC1=NNC(c2ccccn2)S1)Nc1ccccc1 (stereo unspecified) | 0.999
N/C(Cc1cccc2ccccc12)=N/OC(=O)c1ccc(Cl)cc1 | 0.947
COc1c(Br)csc1C(=O)O/N=C(/N)c1cc(C(F)(F)F)cc(C(F)(F)F)c1 | 0.987
O=S(=O)(Nc1ccccc1Oc1ccccc1)c1ccc(-c2ccno2)s1 | 0.971
Clc1ccc(SCc2ccsc2-c2ncns2)cc1 | 0.968
OC(COc1ccc(F)cc1)(c1ccc(Cl)cc1)c1ccc(Cl)cc1 | 0.992
O=C(Nc1ccc(F)cc1F)c1cc(Cl)c(-n2cccc2)c(Cl)c1 | 0.968
Cc1ccc(-c2csc(-c3ccncc3)n2)cc1 | 0.914
O=C(Nc1cccc(Cl)c1)O/N=C1\CCCc2occc21 | 0.943
Clc1ccc(CN2CCN(c3cccc4[nH]ccc34)CC2)cc1Cl | 0.995
CSc1sc(C(=O)Sc2ccccc2)cc1S(=O)(=O)C(C)C | 0.996

---

# Protocol summary: chemical genetic growth profiling, strain panel (AID 1159580)
# Condition info: S. cerevisiae deletion strains, growth OD, locus YKL009W, strain mrt4
Hit rate of the full screen: of about 5,500 compounds, about 2,000 (36%) were called active. About 18% were inconclusive and are not listed. No stated cut-off is given here; in the data, active means normalized growth mostly below about 0.91 (no sharp cut-off); inconclusive means no clear call, values can overlap the other calls; inactive means mostly above about 0.92. Some of the results follow.
Outcome codes: YES for active, NO for inactive

Molecule | Category
CC(=O)c1cc(CC=C(C)C)c(O)c(CC=C(C)C)c1 | NO
CO[C@H]1CC(O[C@@H]2/C(C)=C/C[C@@H]3C[C@@H](C[C@]4(CC[C@H](C)[C@@H](C5CCCCC5)O4)O3)OC(=O)[C@@H]3C=C(C)/C(=N\O)[C@H]4OC/C(=C\C=C\[C@@H]2C)[C@]43O)O[C@@H](C)C1O (some centres not stated) | NO
CC12CCC3C(CC3(C)C)C(C)(CCC1=O)O2 (configuration not stated) | NO
CC1(C)CC2C1CC[C@]1(CBr)CCC3C(CC(=O)O)C(=O)O[C@@]32C1 (some centres not stated) | NO
NS(=O)(=O)c1cc2c(cc1Cl)NC(CSCc1ccccc1)=NS2(=O)=O | NO
CCC(C)[C@H]1O[C@]2(C=C[C@@H]1C)C[C@@H]1C[C@@H](C/C=C(\C)[C@@H](OC3C[C@H](OC)C(O[C@H]4C[C@H](OC)[C@@H](O)[C@H](C)O4)[C@H](C)O3)[C@@H](C)/C=C/C=C3\CO[C@@H]4[C@H](O)C(C)=C[C@@H](C(=O)O1)[C@]34O)O2 (some centres not stated) | NO
CC1=CC(=O)c2ccccc2C1=O | YES

---

# Protocol summary: chemical genetic growth profiling, strain panel (AID 1159580);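 also: tested at 20 µM; growth read once vehicle control cultures reached saturation at 30 °C; 1 = growth at the plate median or of vehicle wells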
# Condition info: S. cerevisiae deletion strains, growth OD, locus YEL061C, strain CIN8
In all, about 5,500 compounds went through this assay and about 2,000 (36%) were called active. Inconclusive results (about 18%) are left out. Rule as the data show it: active = normalized growth mostly below about 0.91 (no sharp cut-off); inconclusive = no clear call, values can overlap the other calls; inactive = mostly above about 0.92. This is one part of the list.
Outcome codes: active, inactive

Compound | Category
CC(C)CCCC(C)C1CC[C@@]2(C)C3=C(CC[C@]12C)[C@@]1(C)CC[C@H](O)C(C)(C)C1CC3 (some centres not stated) | inactive
Cc1cc(C)c(Cn2nc(C(C)(C)C)cc2C(=O)Nc2cccc(C(F)(F)F)c2)c(C)c1 | inactive
O=C(O)c1ccc(S(=O)(=O)N(Cl)Cl)cc1 | inactive
Oc1cccc(O)c1 | inactive
FC(F)(F)c1cc(-c2noc(C3CCc4ccccc4O3)n2)cc(C(F)(F)F)c1 (configuration not stated) | inactive
CC(C)=CC1C(C(=O)O)C1(C)C (configuration not stated) | inactive
COc1c(Br)cc(/C(N)=N\OC(=O)c2c(-c3c(Cl)cccc3Cl)noc2C)cc1Br | inactive
Cc1ccc(Sc2ccc([N+](=O)[O-])cc2/C=C2\SC(=S)NC2=O)cc1 | active
COC(=O)/C(=C1\OC(=O)C(c2ccccc2)=C1O)c1ccccc1 | inactive
COC(=O)c1ccc(S(=O)(=O)N2CCC(C(N)=O)CC2)n1C | inactive
N=C(N)N | inactive
CC(=O)c1cc(CC=C(C)C)c(O)c(CC=C(C)C)c1 | inactive
CC(CCc1ccccc1)NCC(O)c1ccc(O)c(C(N)=O)c1 (configuration not stated) | inactive
Nc1ccc(S(=O)(=O)NC(=O)c2ccccc2)cc1 | inactive
COc1ccc(C2Sc3ccccc3N(CCN(C)C)C(=O)C2OC(C)=O)cc1 (configuration not stated) | inactive
C=C(C)C1CCC(C)(O)C2CC3OC3(C)C2C1 (configuration not stated) | inactive
Fc1cc(F)cc(COc2cc(Cl)cc(Cl)c2)c1 | inactive
OCc1ccccc1-c1ccccc1 | inactive
O=C(NCO)c1cccnc1 | inactive
CN(C)CCCN1c2ccccc2CCc2ccc(Cl)cc21 | inactive
CC(=O)c1ccc(O)c(CC=C(C)C)c1 | inactive
CC(C)CC1NC(=O)CNC1=O (configuration not stated) | inactive
CCCN(CCC)S(=O)(=O)c1ccc(C(=O)O)cc1 | inactive
O=C(O)C1C2CCC1C(O)C2 (configuration not stated) | inactive
O=C(O)c1cc(O)c2c(c1)[C@@H]([C@H]1c3cc(C(=O)O)cc(O)c3C(=O)c3c(O[C@H]4O[C@H](CO)[C@@H](O)[C@H](O)[C@H]4O)cccc31)c1cccc(O[C@H]3O[C@H](CO)[C@@H](O)[C@H](O)[C@H]3O)c1C2=O | inactive
O=C(O)CSC1CCS(=O)(=O)C1 (configuration not stated) | inactive
CC(=O)OCC(=O)[C@@]1(O)[C@H](C)CC2C3CCC4=CC(=O)C=C[C@]4(C)[C@@]3(F)[C@@H](O)C[C@@]21C (some centres not stated) | inactive
O=P1(N(CCCl)CCCl)NCCCO1 (configuration not stated) | inactive
CC(=O)O[C@H]1CC[C@@]2(C)C(=CC(=O)C3C4CCC(C(C)CCCC(C)C)[C@@]4(C)CCC32)C1 (some centres not stated) | inactive
CC1(C)CC2C1CC[C@]1(CBr)CCC3C(CC(=O)O)C(=O)O[C@@]32C1 (some centres not stated) | inactive
CC(C)(C)NCC(O)c1ccc(O)c(CO)c1 (configuration not stated) | inactive
c1ccc(CN2CCC(n3nnc4cccnc43)CC2)cc1 | inactive
CCOC(=O)NNc1nncc2ccccc12 | inactive
CCOC(=O)[C@H](CCc1ccccc1)N[C@@H](C)C(=O)N1CCC[C@H]1C(=O)O | inactive
O=C(O)c1cccnc1 | inactive
Oc1c(Cl)cc(Cl)cc1Sc1cc(Cl)cc(Cl)c1O | inactive
NNCc1cccc(O)c1 | inactive

---

normalized growth overview
# Protocol summary: chemical genetic growth profiling, strain panel (AID 1159580);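 also: tested at 20 µM; growth read once vehicle control cultures reached saturation at 30 °C; 1 = growth at the plate median or of vehicle wells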
# Condition info: S. cerevisiae deletion strains, growth OD, locus YEL003W, strain gim4, stronger effect = lower value
Screen size: about 5,500 compounds; about 2,000 (36%) were called active. Inconclusive results (about 18%) are left out. Some of the results follow.
Measurement name: normalized growth

Compound | Measured result
CC(=O)Oc1cccc(O)c1 | 1.02 (inactive)
OC[C@H]1O[C@@H](O[C@@H]2[C@@H](CO)O[C@](O)(CO)[C@H]2O)[C@H](O)[C@@H](O)[C@H]1O | 1.01 (inactive)
COc1cc(C/C=C/c2ccccc2)c(OC)cc1O | 0.959 (inactive)
NS(=O)(=O)c1cc2c(cc1Cl)NC(CSCc1ccccc1)=NS2(=O)=O | 1.03 (inactive)
CC(=O)Oc1ccc(O)cc1 | 0.986 (inactive)
CC(=O)Oc1ccc(C(c2ccc(OC(C)=O)cc2)c2ccccn2)cc1 | 1.02 (inactive)
O=P1(N(CCCl)CCCl)NCCCO1 (stereo unspecified) | 0.991 (inactive)
OC[C@H]1O[C@@H](O[C@H]2[C@H](O)[C@@H](O)[C@@H](O)O[C@@H]2CO)[C@H](O)[C@@H](O)[C@@H]1O | 1.02 (inactive)
CC(C)(C)NCC(O)c1ccc(O)c(CO)c1 (stereo unspecified) | 1.01 (inactive)
CC(=O)Oc1ccc(/C=C/c2cc(OC(C)=O)cc(OC(C)=O)c2)cc1 | 0.969 (inactive)
CC(C)C[C@@H](CN)CC(=O)O | 1.01 (inactive)

---

# Protocol summary: chemical genetic growth profiling, strain panel (AID 1159580);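 also: tested at 20 µM; growth read once vehicle control cultures reached saturation at 30 °C; 1 = growth at the plate median or of vehicle wells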
# Condition info: S. cerevisiae deletion strains, growth OD, locus YEL061C, strain CIN8 (second series)
The whole screen tested about 5,500 compounds, of which about 2,000 (36%) were called active. About 18% were inconclusive and are not listed. Rule as the data show it: active = normalized growth mostly below about 0.91 (no sharp cut-off); inconclusive = no clear call, values can overlap the other calls; inactive = mostly above about 0.92. The list shows a part of the results.
Outcome codes: true for active, false for inactive

Compound | Category
CC(C)CCCC(C)[C@H]1CCC2C3CC=C4C[C@@H](O)CC[C@]4(C)C3CC[C@@]21C (some centres undefined) | false
CCCOc1ccc2nc(NC(=O)OC)[nH]c2c1 | false
CCCSc1ccc2nc(NC(=O)OC)[nH]c2c1 | false
NCC(N)C(=O)c1ccccc1 (centres undefined) | false
COC(=O)/C(=C1\OC(=O)C(c2ccccc2)=C1O)c1ccccc1 | false
CN(C)[C@@H]1C(=O)C(C(N)=O)=C(O)[C@@]2(O)C(=O)C3=C(O)c4c(O)cccc4[C@@](C)(O)[C@H]3[C@H](O)[C@@H]12 | false
CC(C)CCCC(C)[C@H]1CCC2C3CC=C4CC(=O)CC[C@]4(C)C3CC[C@@]21C (some centres undefined) | false
CN(C)C(=O)Oc1cccc([N+](C)(C)C)c1 | false
COC1CC2CCC(C)C(O)(O2)C(=O)C(=O)N2CCCCC2C(=O)OC(C(C)CC2CCC(O)C(OC)C2)CC(=O)C(C)/C=C(\C)C(O)C(OC)C(=O)C(C)CC(C)/C=C/C=C/C=C/1C (centres undefined) | true
CC(C)=CC1C(C(=O)O)C1(C)C (centres undefined) | false
CN(C)[C@@H]1C(=O)C(C(N)=O)=C(O)[C@@]2(O)C(=O)C3=C(O)c4c(O)ccc(Cl)c4[C@@H](O)[C@H]3C[C@@H]12 | false
NS(=O)(=O)c1cc2c(cc1Cl)NC(CSCc1ccccc1)=NS2(=O)=O | false
O=C(OCc1ccccc1)c1ccccc1 | false
COc1cc(C/C=C/c2ccccc2)c(OC)cc1O | false
C[C@H]1c2cccc(O)c2C(O)=C2C(=O)[C@]3(O)C(O)=C(C(N)=O)C(=O)[C@@H](N(C)C)[C@@H]3[C@@H](O)[C@@H]21 | false
COc1ccc([C@@H]2CC(=O)c3c(O)cc(O[C@@H]4O[C@H](CO[C@H]5O[C@@H](C)[C@H](O)[C@@H](O)[C@H]5O)[C@@H](O)[C@H](O)[C@H]4O)cc3O2)cc1O | false
O=C(O)C1=CCCNC1 | false
Cc1c(C)c2c(c(C)c1O)CCC(C)(CCCC(C)CCCC(C)CCCC(C)C)O2 (centres undefined) | false
C=C1c2cccc(O)c2C(O)=C2C(=O)[C@]3(O)C(O)=C(C(N)=O)C(=O)[C@@H](N(C)C)[C@@H]3[C@@H](O)[C@H]12 | false
